Catalogue of compounds with associated IC50
System: Phospho-ERK levels in KYSE-520 cells
ASSAY_PROTOCOL: pERK AlphaScreen Protocol
Type: cell-based
TEST_CONDITIONS: Homo sapiens, KYSE-520, 2 h, KYSE-520 cells, 2 hr compound incubation, phospho-ERK1/2 AlphaScreen SureFire; read-out: PERK Avg IC50
Answer with the number, then the unit.

Nc1nccc(-c2n[nH]c3nc(N4CCC5(CC4)COC[C@H]5N)cnc23)c1Cl; 483 nM

Q. For the compound CC1(N)CCN(c2cnc3c(-c4ccc(F)c(Cl)c4)n[nH]c3n2)CC1 , what IC50 is on record?
A. 534 nM

Q. For the compound NCC1(O)CCN(c2cnc3c(-c4cccc(Cl)c4Cl)n[nH]c3n2)CC1 , what IC50 is on record?
A. 86 nM

Q. For the compound N[C@@H]1CCCC12CCN(c1cnc3c(-c4ccccc4Cl)n[nH]c3n1)CC2 , what IC50 is on record?
A. 64 nM
